Cited source: paper PMC2950867

Test system: Caco-2 cells
Assay type: cell-based, human
applied-conditions: read-out: IC50 TMER 24-hr; Caco-2 monolayers on PET inserts, 24-hr single dosing
measure-name: pIC50
pIC50 here is simply -log10 of the concentration when that concentration is written in mol/L.

compound	assay-system	measure-name	data-value
[Cl][Ni][Cl] [nickel chloride]	Caco-2 cells	pIC50	2.08
[Cl][Cd][Cl] [cadmium chloride]	Caco-2 cells	pIC50	4.31
[Cl][Mn][Cl] [manganese chloride]	Caco-2 cells	pIC50	2.51

Then this compound:
O=S(=O)([O-])[O-].[Cu+2] [cupric sulfate] has a reported pIC50 of 2.74
